Below: a set of entries, each annotated with reported % inhibition of 4T1 cell number.
Test system: 4T1
Assay: % inhibition of 4T1 cell number vs DMSO control; higher = stronger growth inhibition
Conditions: 1 µM; 3 days; substrate: lung fibroblast-derived matrix

>  <COMPOUND>
NC(=NN=Cc1ccc(-c2cccc([N+](=O)[O-])c2)o1)N[N+](=O)[O-] [ERK Inhibitor III]

>  <% inhibition of 4T1 cell number / %>
-2.29

$$$$
>  <COMPOUND>
COc1ccc2c(c1)/C(=C/c1cnc[nH]1)C(=O)N2

>  <% inhibition of 4T1 cell number / %>
8.25

$$$$
>  <COMPOUND>
O=C1NC(=O)c2c1c1c3ccccc3n3c1c1c2c2ccccc2n1[C@H]1CC[C@@H]3O1

>  <% inhibition of 4T1 cell number / %>
-1.14

$$$$
>  <COMPOUND>
O=[N+]([O-])/C=C/c1ccc2c(c1)OCO2 [Syk Inhibitor III]

>  <% inhibition of 4T1 cell number / %>
-12.2

$$$$
>  <COMPOUND>
COc1ccc2c(c[n+](C)c3c4cc5c(cc4ccc23)OCO5)c1OC [Chelerythrine Chloride]

>  <% inhibition of 4T1 cell number / %>
4.48

$$$$
>  <COMPOUND>
CC(C)(C)c1cc(C=C(C#N)C#N)cc(Br)c1O

>  <% inhibition of 4T1 cell number / %>
2.02

$$$$

These data points were gathered from the supplement of paper PMC8269313.
